Recorded Prodrug Remaining (%) for the following compounds
assay: Stability of prodrugs / release of parent drug in Simulated Gastric Fluid (SGF); format: in vitro ADME; conditions: simulated gi fluid, 0.5 h, 1 µM, pH 1.2
Provide only the numeric value, understood in %.

In [3]: df
Out[3]:
                                   compound  quantitative_result
0  CCC(OC(=O)[C@@H](C)c1ccc2cc(OC)ccc2c1)O[N+](=O)[O-] (stereo partly shown) [I-D2-R2]                62.15
1  COc1ccc2cc([C@H](C)C(=O)OCCO[N+](=O)[O-])ccc2c1 [II-D2-X2, reference compound]                99.75
2  CCCCC(OC(=O)[C@@H](C)c1ccc2cc(OC)ccc2c1)O[N+](=O)[O-] (stereo partly shown) [I-D2-R4]                90.53
3  COc1ccc2cc([C@H](C)C(=O)OCCCCO[N+](=O)[O-])ccc2c1 [II-D2-X4, reference compound]               100.00
4  COc1ccc2cc([C@H](C)C(=O)OCCCO[N+](=O)[O-])ccc2c1 [II-D2-X3, reference compound]               100.00

Incoming: I would be grateful if you could share the reported Prodrug Remaining (%) for CCCC(OC(=O)[C@@H](C)c1ccc2cc(OC)ccc2c1)O[N+](=O)[O-] (stereo partly shown) [I-D2-R3] .
Outgoing: 82.73

Incoming: Which value of Prodrug Remaining (%) has been reported for COc1ccc2cc([C@H](C)C(=O)OC(C)O[N+](=O)[O-])ccc2c1 (stereo partly shown) [I-D2-R1] in the records?
Outgoing: 32.79

====

Test: Stability of prodrugs / release of parent drug in Simulated Gastric Fluid (SGF)
Type: in vitro ADME
Conditions: simulated gi fluid, 10 min, 1 µM, pH 1.2
Protocol: SGF was prepared according to the procedure described in Test Solution—USP. […] The solution of the test compound in acetonitrile (10 μL of […] solution) was dissolved in 990 μL of biological fluid (SGF/SIF/Human Plasma). […] The mixture was centrifuged at 13000 rpm for 15 min at 4° C., and the supernatant analyzed by HPLC. […]
outcome-measure: Prodrug Remaining (%)
Entry rule: numbers only, all in %.

                                   molecule        outcome_measure  result_unit  quantitative_result
0  COc1ccc2cc([C@H](C)C(=O)OCCCO[N+](=O)[O-])ccc2c1 [II-D2-X3, reference compound]  Prodrug Remaining (%)            %               100.00
1  CCCCC(OC(=O)[C@@H](C)c1ccc2cc(OC)ccc2c1)O[N+](=O)[O-] (stereo partly shown) [I-D2-R4]  Prodrug Remaining (%)            %                96.18
2  COc1ccc2cc([C@H](C)C(=O)OCCCCO[N+](=O)[O-])ccc2c1 [II-D2-X4, reference compound]  Prodrug Remaining (%)            %               100.00
3  COc1ccc2cc([C@H](C)C(=O)OCCO[N+](=O)[O-])ccc2c1 [II-D2-X2, reference compound]  Prodrug Remaining (%)            %                99.79
4  CCC(OC(=O)[C@@H](C)c1ccc2cc(OC)ccc2c1)O[N+](=O)[O-] (stereo partly shown) [I-D2-R2]  Prodrug Remaining (%)            %                90.43
5  COc1ccc2cc([C@H](C)C(=O)OC(C)O[N+](=O)[O-])ccc2c1 (stereo partly shown) [I-D2-R1]  Prodrug Remaining (%)            %                74.58

Then this molecule:
Incoming: Prodrug Remaining (%) lookup needed for CCCC(OC(=O)[C@@H](C)c1ccc2cc(OC)ccc2c1)O[N+](=O)[O-] (stereo partly shown) [I-D2-R3] , thanks.
Outgoing: 93.61

====

test: Stability of prodrugs / release of parent drug in Simulated Gastric Fluid (SGF); format: in vitro ADME
outcome-measure: Release of parent drug on incubation in SGF (in words)

In [3]: df
Out[3]:
                                   compound             result
0  CCCC(OC(=O)[C@@H](C)c1ccc2cc(OC)ccc2c1)O[N+](=O)[O-] (stereo partly drawn) [I-D2-R3]  released naproxen
1  CCC(OC(=O)[C@@H](C)c1ccc2cc(OC)ccc2c1)O[N+](=O)[O-] (stereo partly drawn) [I-D2-R2]  released naproxen

====

Below, each entry is listed alongside its reported Prodrug Remaining (%).
test: Stability of prodrugs / release of parent drug in Simulated Gastric Fluid (SGF); assay type: in vitro ADME; details: simulated gi fluid, 5 min, 1 µM, pH 1.2
I only need the number, in %, no unit after it.

                                   compound  result_unit  quantitative_result
0  COc1ccc2cc([C@H](C)C(=O)OC(C)O[N+](=O)[O-])ccc2c1 (stereo partly shown) [I-D2-R1]            %                84.68

Incoming: Recorded Prodrug Remaining (%) of COc1ccc2cc([C@H](C)C(=O)OCCO[N+](=O)[O-])ccc2c1 [II-D2-X2, reference compound] , please.
Outgoing: 99.68

Incoming: Requested read-out: Prodrug Remaining (%). Entry: CCCC(OC(=O)[C@@H](C)c1ccc2cc(OC)ccc2c1)O[N+](=O)[O-] (stereo partly shown) [I-D2-R3]
Outgoing: 96.35

Incoming: Quick one: Prodrug Remaining (%) of COc1ccc2cc([C@H](C)C(=O)OCCCCO[N+](=O)[O-])ccc2c1 [II-D2-X4, reference compound] ?
Outgoing: 100.00

Incoming: I'd like to know its Prodrug Remaining (%). The compound in question is CCCCC(OC(=O)[C@@H](C)c1ccc2cc(OC)ccc2c1)O[N+](=O)[O-] (stereo partly shown) [I-D2-R4]
Outgoing: 97.74

Incoming: Please report the recorded Prodrug Remaining (%) for CCC(OC(=O)[C@@H](C)c1ccc2cc(OC)ccc2c1)O[N+](=O)[O-] (stereo partly shown) [I-D2-R2] .
Outgoing: 94.33

Incoming: I would be grateful if you could share the reported Prodrug Remaining (%) for COc1ccc2cc([C@H](C)C(=O)OCCCO[N+](=O)[O-])ccc2c1 [II-D2-X3, reference compound] .
Outgoing: 100.00

====

Listed next: entries and their corresponding Prodrug Remaining (%).
test: Stability of prodrugs / release of parent drug in Simulated Gastric Fluid (SGF); type: in vitro ADME; details: simulated gi fluid, 3 h, 1 µM, pH 1.2
Write the number in % without appending the unit.

>>> print(df.to_string())
                                   compound        outcome_measure  quantitative_result
0  CCCCC(OC(=O)[C@@H](C)c1ccc2cc(OC)ccc2c1)O[N+](=O)[O-] (stereo partly drawn) [I-D2-R4]  Prodrug Remaining (%)                71.04

Incoming: Which measured Prodrug Remaining (%) value corresponds to COc1ccc2cc([C@H](C)C(=O)OC(C)O[N+](=O)[O-])ccc2c1 (stereo partly drawn) [I-D2-R1] ?
Outgoing: 0.00

Incoming: Suppose we examine the compound CCCC(OC(=O)[C@@H](C)c1ccc2cc(OC)ccc2c1)O[N+](=O)[O-] (stereo partly drawn) [I-D2-R3] ; what Prodrug Remaining (%) value has been reported?
Outgoing: 39.00

====

assay: Stability of prodrugs / release of parent drug in Simulated Gastric Fluid (SGF); type: in vitro ADME; details: simulated gi fluid, pH 1.2; SGF; read-out: t1/2 of prodrug in SGF
outcome-measure: half-life at 1 µM

Incoming: I have this compound here, CC(OC(=O)CCCc1ccc(N(CCCl)CCCl)cc1)O[N+](=O)[O-] (stereo not shown) , and I need its recorded half-life at 1 µM.
Outgoing: < 5 min

====

experiment: Stability of prodrugs / release of parent drug in Simulated Gastric Fluid (SGF); type: in vitro ADME; conditions: simulated gi fluid, 2 h, 1 µM, pH 1.2
Overview of recorded Prodrug Remaining (%) for various compounds
Kindly answer with a numeric value in %, unit omitted.

Solved entries (count: 6):
>>> print(df.to_string())
                                   compound        outcome_measure  result_unit  quantitative_result
0  COc1ccc2cc([C@H](C)C(=O)OC(C)O[N+](=O)[O-])ccc2c1 (stereo partly shown) [I-D2-R1]  Prodrug Remaining (%)            %                 0.00
1  CCCCC(OC(=O)[C@@H](C)c1ccc2cc(OC)ccc2c1)O[N+](=O)[O-] (stereo partly shown) [I-D2-R4]  Prodrug Remaining (%)            %                79.97
2  COc1ccc2cc([C@H](C)C(=O)OCCCCO[N+](=O)[O-])ccc2c1 [II-D2-X4, reference compound]  Prodrug Remaining (%)            %               100.00
3  CCC(OC(=O)[C@@H](C)c1ccc2cc(OC)ccc2c1)O[N+](=O)[O-] (stereo partly shown) [I-D2-R2]  Prodrug Remaining (%)            %                39.08
4  COc1ccc2cc([C@H](C)C(=O)OCCO[N+](=O)[O-])ccc2c1 [II-D2-X2, reference compound]  Prodrug Remaining (%)            %                99.39
5  CCCC(OC(=O)[C@@H](C)c1ccc2cc(OC)ccc2c1)O[N+](=O)[O-] (stereo partly shown) [I-D2-R3]  Prodrug Remaining (%)            %                57.55

Incoming: Item COc1ccc2cc([C@H](C)C(=O)OCCCO[N+](=O)[O-])ccc2c1 [II-D2-X3, reference compound] has what recorded Prodrug Remaining (%)?
Outgoing: 100.00
